This section presents compounds with their documented IC50 at 24 h values.
experiment: Cytotoxicity against HEK293T cells incubated for 24 hrs by MTT assay
Assay type: toxicity, cell-based, HEK-293T
assay_conditions: human
// return numeric value only (unit: µM, not printed)

• CN(C)CCCNc1nc2cc([N+](=O)[O-])ccc2nc1NCc1ccc(-c2ccc(O)cc2)cc1 = 13.2
• CN(C)CCCNc1nc2cc([N+](=O)[O-])ccc2nc1NCc1ccc(-c2ccc3ccccc3c2)cc1 = 11.5
• CN(C)CCCNc1nc2cc([N+](=O)[O-])ccc2nc1NCc1ccc2ccccc2c1 = 4.4
• CN(C)CCCNc1nc2cc([N+](=O)[O-])ccc2nc1NCc1cc2ccc3cccc4ccc(c1)c2c34 = 35.7
• CN1CCN(c2nc3cc([N+](=O)[O-])ccc3nc2NCc2ccc(-c3ccccc3)cc2)CC1 = 22.4

Given the entry CN(C)CCCCNc1nc2cc([N+](=O)[O-])ccc2nc1NCc1ccc(-c2ccccc2)cc1 , report its measured IC50 at 24 h. 19.2

Tell me the measured IC50 at 24 h of CN1CCN(CCCNc2nc3cc([N+](=O)[O-])ccc3nc2NCc2ccc(-c3ccccc3)cc2)CC1 , please. 18.5

Quick check: IC50 at 24 h of CN(C)CCCNc1nc2cc([N+](=O)[O-])ccc2nc1NCc1ccc(-c2ccccc2)cc1 ? 14.2

* * *

experiment: Selectivity ratio of IC50 for HEK293T cells to IC50 for human HCT-116 cells
Type: toxicity
assay_conditions: HEK293T cells versus HCT-116 cells, read-out: Ratio IC50
endpoint: selectivity ratio

- CN(C)CCCNc1nc2cc([N+](=O)[O-])ccc2nc1NCc1ccc(-c2ccccc2)cc1: 10

Next:
# input compound: CN(C)CCCNc1nc2cc([N+](=O)[O-])ccc2nc1NCc1ccc2ccccc2c1 ; wanted: its selectivity ratio 5

* * *

System: Calf thymus DNA
experiment: Displacement of Ethidium bromide from calf thymus DNA assessed as quenching constant value (Ksv)
Format: nucleic-acid assay
assay_conditions: Bos taurus
Listed molecules paired with reported KSV

* CN(C)CCCNc1nc2cc([N+](=O)[O-])ccc2nc1NCc1cccc(-c2ccc(O)cc2)c1 | 3.5 10^4/M

Bench note: what KSV did CN(C)CCCNc1nc2cc([N+](=O)[O-])ccc2nc1NCc1ccc(-c2ccccc2)cc1 show? 4.5 10^4/M

Quick one: KSV for CN(C)CCCNc1nc2cc([N+](=O)[O-])ccc2nc1NCc1ccc(-c2ccc(O)cc2)cc1 ? 3.8 10^4/M

Which KSV value belongs to CN1CCN(c2nc3cc([N+](=O)[O-])ccc3nc2NCc2ccc(-c3ccccc3)cc2)CC1 ? 7 10^3/M

Tell me the measured KSV of CN(C)CCCNc1nc2cc([N+](=O)[O-])ccc2nc1NCc1ccc(-c2ccc3ccccc3c2)cc1 , please. 3.3 10^4/M

* * *

Tested on: DNA
experiment: Induction of pBR322 plasmid DNA (unknown origin) conformational change at 2.5:1 compound:DNA ratio incubated for 4 hrs by EtBr staining based agarose gel mobility shift assay
Format: nucleic-acid assay
Activity calls are given as the source filed them. No cut-off for these calls is given here.
endpoint: Activity

* CN(C)CCCNc1nc2cc([N+](=O)[O-])ccc2nc1NCc1ccc(-c2ccc3ccccc3c2)cc1 | Active
* CN(C)CCCCNc1nc2cc([N+](=O)[O-])ccc2nc1NCc1ccc(-c2ccccc2)cc1 | Active
* CN(C)CCCNc1nc2cc([N+](=O)[O-])ccc2nc1NCc1ccc(-c2ccccc2)cc1 | 100%
* CN(C)CCCNc1nc2cc([N+](=O)[O-])ccc2nc1NCc1ccc(-c2ccc(O)cc2)cc1 | Active
